Where do these numbers come from? They come from the supplement of paper PMC8728848.

TEST_TARGET: GlcNAc(b1-3)Gal(b1-4)GlcNAc(b1-3)Gal(b1-4)GlcNAc(b1-3)Gal(b1-4)GlcNAc(b1-3)Gal(b1-4)GlcNAc(b1-2)Man(a1-3)[GlcNAc(b1-3)Gal(b1-4)GlcNAc(b1-3)Gal(b1-4)GlcNAc(b1-3)Gal(b1-4)GlcNAc(b1-3)Gal(b1-4)GlcNAc(b1-2)Man(a1-6)]Man(b1-4)GlcNAc(b1-4)GlcNAc
ASSAY_METHOD_TEXT: glycan array binding signal (z-score within array); higher = stronger binding
MEASUREMENT_PARAMETERS: glycan notation: IUPAC condensed, linker removed
About 410 targets per protein were measured; listed, in parts, are those with the strongest signals and a random draw of the rest.
# glycan array binding signal (z-score) annotations
// return a plain number; no unit text

BINDER	PARAMETER_MEASURED	QUANTITATIVE_RESULT
Pwp2 (Candida glabrata) (protein) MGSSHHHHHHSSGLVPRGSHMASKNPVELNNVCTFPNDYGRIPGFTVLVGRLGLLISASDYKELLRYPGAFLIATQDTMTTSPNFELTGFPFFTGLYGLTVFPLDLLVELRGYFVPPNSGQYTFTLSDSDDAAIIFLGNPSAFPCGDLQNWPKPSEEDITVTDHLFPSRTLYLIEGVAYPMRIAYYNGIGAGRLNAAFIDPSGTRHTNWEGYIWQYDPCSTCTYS	glycan array binding signal (z-score)	-0.549
SJCP3842 (Schistosoma japonicum) (protein) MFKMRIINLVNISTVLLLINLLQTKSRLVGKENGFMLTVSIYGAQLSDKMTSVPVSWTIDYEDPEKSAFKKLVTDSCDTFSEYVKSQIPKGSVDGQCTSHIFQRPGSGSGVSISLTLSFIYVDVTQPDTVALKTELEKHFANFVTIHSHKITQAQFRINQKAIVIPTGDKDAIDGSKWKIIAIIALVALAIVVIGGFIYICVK	glycan array binding signal (z-score)	-0.488
Mg3lysM (Mycosphaerella graminicola) (protein) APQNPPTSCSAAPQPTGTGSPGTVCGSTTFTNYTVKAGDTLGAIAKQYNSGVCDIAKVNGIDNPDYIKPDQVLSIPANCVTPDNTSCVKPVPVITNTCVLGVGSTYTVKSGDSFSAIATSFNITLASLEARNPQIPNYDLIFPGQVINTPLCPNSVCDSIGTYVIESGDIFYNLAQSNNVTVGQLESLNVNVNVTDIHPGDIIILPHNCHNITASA	glycan array binding signal (z-score)	-0.191

Let us examine a further case.
Reported glycan array binding signal (z-score) of LlpA (Burkholderia cenocepacia) (protein) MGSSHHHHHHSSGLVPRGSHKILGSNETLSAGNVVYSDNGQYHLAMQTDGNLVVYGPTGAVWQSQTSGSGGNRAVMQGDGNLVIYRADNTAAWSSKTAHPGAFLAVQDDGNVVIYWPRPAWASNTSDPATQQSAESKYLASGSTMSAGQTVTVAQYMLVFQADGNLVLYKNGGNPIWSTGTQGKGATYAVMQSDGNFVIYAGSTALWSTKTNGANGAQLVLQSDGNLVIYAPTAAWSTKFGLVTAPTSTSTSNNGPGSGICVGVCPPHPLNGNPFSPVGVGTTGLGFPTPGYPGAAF : 1.56
